Endpoint: pIC50. System: Prostaglandin G/H synthase 1 (Ovis aries, UniProt P05979). Items follow.
Sequence (P05979 whole entry): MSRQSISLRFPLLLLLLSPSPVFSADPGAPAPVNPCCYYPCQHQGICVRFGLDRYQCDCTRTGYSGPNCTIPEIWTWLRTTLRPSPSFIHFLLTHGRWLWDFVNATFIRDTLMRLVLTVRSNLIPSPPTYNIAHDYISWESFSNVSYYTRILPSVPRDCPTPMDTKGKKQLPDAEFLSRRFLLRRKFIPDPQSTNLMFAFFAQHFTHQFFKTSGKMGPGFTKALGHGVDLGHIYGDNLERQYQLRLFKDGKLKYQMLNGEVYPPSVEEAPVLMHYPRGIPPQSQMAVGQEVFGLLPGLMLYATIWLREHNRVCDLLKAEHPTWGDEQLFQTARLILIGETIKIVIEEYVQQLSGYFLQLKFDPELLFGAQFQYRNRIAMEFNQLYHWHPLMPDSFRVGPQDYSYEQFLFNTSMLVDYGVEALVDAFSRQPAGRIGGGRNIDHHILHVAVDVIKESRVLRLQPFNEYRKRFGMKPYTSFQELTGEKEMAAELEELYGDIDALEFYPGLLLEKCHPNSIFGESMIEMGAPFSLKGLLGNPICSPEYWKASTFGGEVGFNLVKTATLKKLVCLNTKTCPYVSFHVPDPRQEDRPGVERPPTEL
pIC50: −log10 of the molar value.

| Structure as smiles | pIC50 |
| --- | --- |
| O=C(Nc1cccc(Br)c1)N1CCc2ccccc2[C@@H]1c1ccccc1 | 5.11 |
| O=C(Nc1ccccc1)N1CCc2ccccc2[C@@H]1c1ccccc1 | 5.27 |
